- System: SK-OV-3
- Method Description: NCI tumour cell line growth inhibition, 48 h
Activity calls are given as the source filed them. No stated cut-off is given here; in the data, active = GI50 up to about 1.1 µM and inactive = higher.
Recorded GI50 values for a group of molecules are listed next.

>  <Molecule>
CC(=O)N/C(=C\c1cccc([N+](=O)[O-])c1)c1nc2ccc3c(c2[nH]1)C(=O)c1ccccc1C3=O

>  <GI50>
13.6 µM (inactive)

$$$$
>  <Molecule>
CC1(c2cccc3c2C2(O)C=CC4(CCC32)OCCO4)OCCO1 (stereo not drawn)

>  <GI50>
> 100 µM (inactive)

$$$$

Okay, next one:
Request: Please report GI50 for the following molecule: "O=C1CC[C@@H](S(=O)(=O)c2ccccc2)[C@H](/C=C/c2ccccc2)O1"
Result: > 100 µM (inactive)

====

- System: K562
- Method Description: NCI tumour cell line growth inhibition, 48 h
Calls of active or inactive are those of the source. No stated cut-off is given here; in the data, active = GI50 up to about 1.1 µM and inactive = higher.
Recorded GI50 values for a group of compounds are listed next.

Worked examples follow.
>  <Compound>
COC(=O)C(=O)C(C(=O)C(=O)Nc1cc(Cl)c(Cl)cc1Cl)c1nc2ccc([N+](=O)[O-])cc2nc1O (stereo unspecified)

>  <Tgt>
K562

>  <GI50>
> 100 µM (inactive)

$$$$
>  <Compound>
CCN1C(=O)/C(=C/Nc2ccccc2)S/C1=N/Nc1nc(-c2ccc(O)c(O)c2)cs1

>  <Tgt>
K562

>  <GI50>
3.4 µM (inactive)

$$$$
>  <Compound>
COc1ccc(C2Oc3cc(OC)c(OC)cc3C2CCl)cc1OC (stereo unspecified)

>  <Tgt>
K562

>  <GI50>
> 100 µM (inactive)

$$$$
>  <Compound>
COc1cc(C(=O)Nc2c3ccccc3nc3ccccc23)cc(OC)c1OC

>  <Tgt>
K562

>  <GI50>
> 54.3 µM (inactive)

$$$$

Okay, next one:
Request: Please report GI50 for the following compound: "Cc1cccc(C)c1NC(=O)CCC/C(CC(=O)c1ccc(F)cc1)=N\NC(=O)C(=O)NN"
Result: > 100 µM (inactive)

====

- Test system: OVCAR-8
- Method Description: NCI tumour cell line growth inhibition, 48 h
Activity calls are given as the source filed them. Cut-off read from the data, not from the text of the source: active = GI50 up to about 1.1 µM and inactive = higher. Non-standard residues stand in square brackets, D forms with d. Residues, ends and D or L forms follow the SMILES beside them. ξ: configuration not given here. *: point of attachment. dThr(3ξ) = CC(O)[C@@H](N)C(=O)O; dNMeL = CN[C@H](CC(C)C)C(=O)O; OBn = c1ccc(CO*)cc1; ξLac = CC(O)C(=O)O
// one of Y for active, N for inactive, no free text

Answered examples (4):
>  <Compound>
CN(C)C(=O)CC(C(=O)O)c1c[nH]c2ccccc12 (stereo not given)

>  <Label>
N

$$$$
>  <Compound>
CC(C)(C)OC(=O)Cn1ncn(NC(=O)Cc2ccccc2)c1=S

>  <Label>
N

$$$$
>  <Compound>
COC1(OC)C[C@H](C)[C@@]23O[C@]24c2cc(O)c5c(c2N[C@H]3C#C/C=C\C#C[C@]14O)C(=O)c1ccccc1C5=O

>  <Label>
Y

$$$$
>  <Compound>
CS[C@]12C(=O)C[C@@]3(C)[C@@H](CC[C@]3(O)C(=O)CO)[C@@H]1CCC1=CC(=O)CC[C@@]12C

>  <Label>
N

$$$$

Turning now to a further compound:
Request: Short answer needed: outcome of this test for CC(=O)OC(C)[C@@H](NC(=O)[C@@H](CC(C)C)N(C)C(=O)[C@@H]1CCCN1C(=O)C(C)O)C(=O)OCc1ccccc1 (stereo not given in full) (H-[ξLac]P[dNMeL][dThr(3ξ)](Ac)-OBn) ?
Result: N

====

- Tested on: HCT-116
- Method Description: NCI tumour cell line growth inhibition, 48 h
The source made the active and inactive calls. Rule as the data show it: active = GI50 up to about 1.1 µM and inactive = higher.
Recorded GI50 values for a group of compounds are listed next.

Request: Please report GI50 for the following compound: CC(C)(C)c1cc([N+](=O)[O-])cc([N+](=O)[O-])c1O [DINOTERB]
Result: > 10 µM (inactive)

Request: Please report GI50 for the following compound: "CN(NC(=O)c1cccs1)C1=NCCCCN1"
Result: > 100 µM (inactive)

Request: Please report GI50 for the following compound: "O=C(/C=C/c1ccccc1)CCN1CCN(CCC(=O)/C=C/c2ccccc2)CC1"
Result: 2.16 µM (inactive)

Request: Please report GI50 for the following compound: "CCOC(=O)c1cc(=O)n(C)c(=O)n1C"
Result: > 100 µM (inactive)

====

- Test system: HOP-62
- Method Description: NCI tumour cell line growth inhibition, 48 h
Calls of active or inactive are those of the source. Cut-off read from the data, not from the text of the source: active = GI50 up to about 1.1 µM and inactive = higher.
Experimental Readout: GI50

Request: Please report GI50 for the following compound: "Nc1c2c(nc3ccccc13)CCCc1ccccc1-2"
Result: 12.4 µM (inactive)

Request: Please report GI50 for the following compound: "CS/C(C#N)=C(\C#N)SC"
Result: 16.6 µM (inactive)

Request: Please report GI50 for the following compound: COC(=O)C1=C(C(=O)OC)C2(OC(C)=O)c3ccccc3-c3ccccc3C12 (centres undefined)
Result: 20 µM (inactive)

Request: Please report GI50 for the following compound: "Cc1cccc(NC(=O)c2c(N)[n+]([O-])c3ccccc3[n+]2[O-])c1"
Result: 17.1 µM (inactive)

Request: Please report GI50 for the following compound: Cc1cc(=O)[nH]c2cc(NC(=O)C(C)NC(=O)C(C)NC(=O)C(C)NC(=O)OC(C)(C)C)ccc12 (centres undefined)
Result: > 15 µM (inactive)

Request: Please report GI50 for the following compound: "COc1cc2c(c(OC)c1)C(=O)C(=O)C(CC1(C)OCCCO1)=C2"
Result: 17.5 µM (inactive)

Request: Please report GI50 for the following compound: "Cc1ccc(C)c(NC(=O)CCc2n[nH]c(=S)o2)c1"
Result: > 100 µM (inactive)

Request: Please report GI50 for the following compound: "CC(C)N(C(=O)c1cccc(C(=O)N(C(C)C)C(C)C)c1)C(C)C"
Result: > 100 µM (inactive)

Request: Please report GI50 for the following compound: "CN(NC(=O)/C(=C/C=C/c1ccccc1)NC(=O)c1ccccc1)C1=C(Cl)C(=O)[N+](c2ccccc2)=CC1"
Result: 21.7 µM (inactive)

====

Recorded GI50 values for a group of compounds are listed next.
- System: KM12
- Method Description: NCI tumour cell line growth inhibition, 48 h
The source made the active and inactive calls. Cut-off read from the data, not from the text of the source: active = GI50 up to about 1.1 µM and inactive = higher.

>  <Compound>
COc1cc2nc(-c3cccs3)nc(N3CCN(c4ccccc4)CC3)c2cc1OC

>  <GI50>
> 100 µM (inactive)

$$$$
>  <Compound>
COc1cccc(N2C(=O)c3c(c4[nH]c5ccccc5c4c4ccc(C(C)(C)C)cc34)C2=O)c1

>  <GI50>
> 100 µM (inactive)

$$$$
>  <Compound>
O=C(O)Cc1cccc2c(=O)c3ccccc3oc12

>  <GI50>
> 100 µM (inactive)

$$$$

Request: Please report GI50 for the following compound: "O=[N+]([O-])/C(C(Cl)=C(Cl)Cl)=C1/OCCS1"
Result: 31.9 µM (inactive)

Request: Please report GI50 for the following compound: "CN(C)CCNC(=O)c1cccc(C(=O)Nc2ccccc2)c1[N+](=O)[O-]"
Result: > 100 µM (inactive)

Request: Please report GI50 for the following compound: "COc1cc2c(c(OC)c1)C(=O)C(=O)C(CC1(C)OCCCO1)=C2"
Result: 16 µM (inactive)

Request: Please report GI50 for the following compound: "Clc1ncnc2c1nc(C#Cc1ccccc1)n2Cc1ccccc1"
Result: 23.6 µM (inactive)

Request: Please report GI50 for the following compound: COC(=O)C(=O)C(C(=O)C(=O)Nc1cc(Cl)c(Cl)cc1Cl)c1nc2ccc([N+](=O)[O-])cc2nc1O (centres undefined)
Result: > 100 µM (inactive)

Request: Please report GI50 for the following compound: "COc1ccc2c(c1)CC[C@@H]1[C@@H]2CC[C@]2(C)C(=O)/C(=C/c3ccc(C#N)cc3)C[C@@H]12"
Result: > 100 µM (inactive)

====

- Test system: SNB-75
- Method Description: NCI tumour cell line growth inhibition, 48 h
Activity calls are given as the source filed them. Cut-off read from the data, not from the text of the source: active = GI50 up to about 1.1 µM and inactive = higher.
// one of true (1) for active, false (0) for inactive, no free text

>  <Compound>
COc1cc(C2SCC(=O)N2NC(=O)c2ccc(NC(C)=O)cc2)cc(OC)c1OC (stereo not given)

>  <Label>
false (0)

$$$$

Request: Short answer needed: outcome of this test for O=C1c2ccccc2C(=O)c2c(NCC3CO3)ccc(NCC3CO3)c21 (stereo not given) ?
Result: false (0)

Request: Short answer needed: outcome of this test for COC(=O)c1ccccc1CC1Cc2ccc3c(c2C1=O)CCCC3 (stereo not given) ?
Result: false (0)

Request: Short answer needed: outcome of this test for CC(C)=CC1C(C(=O)O)C1(C)C (stereo not given) [CHRYSANTHEMIC ACID] ?
Result: false (0)

Request: Short answer needed: outcome of this test for "[N-]=[N+]=Nc1cc(=O)n(-c2ccccc2)c2ccccc12" ?
Result: false (0)

Request: Short answer needed: outcome of this test for "C\C(=N/N=C1/C(=C\N(C)C)C(=O)NC(=O)N1C)c1ccc(Cl)cc1" ?
Result: false (0)

Request: Short answer needed: outcome of this test for "Cc1ccc(S(=O)(=O)OI(O)CC(F)(F)F)cc1" ?
Result: false (0)

Request: Short answer needed: outcome of this test for "Cc1cccc(C2=NC(C)(C)C(C)(C)N=C2c2cccc(C)n2)n1" ?
Result: false (0)
